- Tested on: SF-268
- measurement_notes: Cytotoxicity against human SF-268 cells assessed as cell viability at 10 uM incubated for 48 hrs by sulforhodamine B assay relative to control
- Format: functional
- condition_notes: read-out: Activity
Threshold check on viability at 10 µM: strictly below 70% is true (1); on or above 70% is false (0).

{"given_smiles": "O=C(NCCNc1nccc(-c2c(-c3cccc(F)c3)nc3sccn23)n1)c1ccccc1", "assigned_class": "true (1)"}
{"given_smiles": "O=S(=O)(NCCCNc1nccc(-c2c(-c3cccc(F)c3)nc3sccn23)n1)c1ccc(Cl)cc1", "assigned_class": "false (0)"}
{"given_smiles": "O=C(NCCCNc1nccc(-c2c(-c3cccc(F)c3)nc3sccn23)n1)C1CCCCC1", "assigned_class": "false (0)"}
{"given_smiles": "O=S(=O)(NCCNc1nccc(-c2c(-c3cccc(F)c3)nc3sccn23)n1)c1ccc(C(F)(F)F)cc1", "assigned_class": "false (0)"}

----------
- Tested on: SN12C
- measurement_notes: Cytotoxicity against human SN12C cells assessed as cell viability at 10 uM incubated for 48 hrs by sulforhodamine B assay relative to control
- Assay type: functional
- condition_notes: read-out: Activity
Threshold check on viability at 10 µM: strictly below 60% is Yes; on or above 60% is No.

{"given_smiles": "O=S(=O)(NCCNc1nccc(-c2c(-c3cccc(F)c3)nc3sccn23)n1)c1ccc(F)cc1", "assay_target": "SN12C", "assigned_class": "Yes"}
{"given_smiles": "O=S(=O)(NCCNc1nccc(-c2c(-c3cccc(F)c3)nc3sccn23)n1)c1ccccc1", "assay_target": "SN12C", "assigned_class": "Yes"}
{"given_smiles": "Cc1ccc(S(=O)(=O)NCCCNc2nccc(-c3c(-c4cccc(F)c4)nc4sccn34)n2)cc1", "assay_target": "SN12C", "assigned_class": "No"}
{"given_smiles": "O=S(=O)(NCCCNc1nccc(-c2c(-c3cccc(F)c3)nc3sccn23)n1)c1cccc(F)c1", "assay_target": "SN12C", "assigned_class": "Yes"}

----------
- System: SF-268
- measurement_notes: Cytotoxicity against human SF-268 cells assessed as cell viability at 10 uM incubated for 48 hrs by sulforhodamine B assay relative to control
- Format: functional
- condition_notes: read-out: Activity
Threshold check on viability at 10 µM: strictly below 60% is t; on or above 60% is f.

{"given_smiles": "O=S(=O)(NCCCNc1nccc(-c2c(-c3cccc(F)c3)nc3sccn23)n1)c1ccccc1", "assigned_class": "f"}
{"given_smiles": "O=C(NCCNc1nccc(-c2c(-c3cccc(F)c3)nc3sccn23)n1)C1CCCCC1", "assigned_class": "f"}
{"given_smiles": "O=C(NCCNc1nccc(-c2c(-c3cccc(F)c3)nc3sccn23)n1)c1c(F)cccc1F", "assigned_class": "t"}
{"given_smiles": "O=S(=O)(NCCCNc1nccc(-c2c(-c3cccc(F)c3)nc3sccn23)n1)c1cccc2ccccc12", "assigned_class": "t"}
{"given_smiles": "O=S(=O)(NCCCNc1nccc(-c2c(-c3cccc(F)c3)nc3sccn23)n1)c1ccc(O)cc1", "assigned_class": "f"}
{"given_smiles": "O=S(=O)(NCCNc1nccc(-c2c(-c3cccc(F)c3)nc3sccn23)n1)c1ccc(F)cc1", "assigned_class": "t"}
{"given_smiles": "O=S(=O)(NCCNc1nccc(-c2c(-c3cccc(F)c3)nc3sccn23)n1)c1ccccc1", "assigned_class": "t"}
{"given_smiles": "Cc1ccc(S(=O)(=O)NCCCNc2nccc(-c3c(-c4cccc(F)c4)nc4sccn34)n2)cc1", "assigned_class": "f"}
{"given_smiles": "O=C(NCCCNc1nccc(-c2c(-c3cccc(F)c3)nc3sccn23)n1)c1ccc(C(F)(F)F)cc1", "assigned_class": "f"}
{"given_smiles": "O=S(=O)(NCCNc1nccc(-c2c(-c3cccc(F)c3)nc3sccn23)n1)c1cccc2ccccc12", "assigned_class": "f"}
{"given_smiles": "O=S(=O)(NCCCNc1nccc(-c2c(-c3cccc(F)c3)nc3sccn23)n1)c1cccc(F)c1", "assigned_class": "t"}
{"given_smiles": "O=S(=O)(NCCCNc1nccc(-c2c(-c3cccc(F)c3)nc3sccn23)n1)c1ccc(C(F)(F)F)cc1", "assigned_class": "f"}
{"given_smiles": "O=S(=O)(NCCNc1nccc(-c2c(-c3cccc(F)c3)nc3sccn23)n1)c1cccc(F)c1", "assigned_class": "f"}
{"given_smiles": "O=S(=O)(NCCNc1nccc(-c2c(-c3cccc(F)c3)nc3sccn23)n1)c1ccc(Cl)cc1", "assigned_class": "t"}
{"given_smiles": "O=S(=O)(NCCCNc1nccc(-c2c(-c3cccc(F)c3)nc3sccn23)n1)c1ccc(F)cc1", "assigned_class": "f"}
{"given_smiles": "O=C(NCCNc1nccc(-c2c(-c3cccc(F)c3)nc3sccn23)n1)c1ccc(C(F)(F)F)cc1", "assigned_class": "f"}
{"given_smiles": "O=S(=O)(NCCNc1nccc(-c2c(-c3cccc(F)c3)nc3sccn23)n1)c1ccc(Br)cc1", "assigned_class": "t"}

The reported numbers originate from ChEMBL document CHEMBL4665642.
